target: A3Fc-CD2 Y307A (human, UniProt Q9HC16 197-221+Q8IUX4:220-373, Y307A;internal_change); assay: BLI
observed-property: Kd
State the value, then name its unit.

The binder identified as TCCCTCAGACCCTTTTAGTCAGTGTGGAAAATCTCTAGCAGT (ssDNA) [42-mer ssDNA, viral U5 end of 3'-LTR] registered its Kd at 410 µM
